- tested system: recombinant human A2A receptors (Homo sapiens, UniProt P29274)
- Construct: expressed in transfected cells; host or cells: Sf9 insect cells infected with virus; membranes
- Sequence (P29274 whole entry): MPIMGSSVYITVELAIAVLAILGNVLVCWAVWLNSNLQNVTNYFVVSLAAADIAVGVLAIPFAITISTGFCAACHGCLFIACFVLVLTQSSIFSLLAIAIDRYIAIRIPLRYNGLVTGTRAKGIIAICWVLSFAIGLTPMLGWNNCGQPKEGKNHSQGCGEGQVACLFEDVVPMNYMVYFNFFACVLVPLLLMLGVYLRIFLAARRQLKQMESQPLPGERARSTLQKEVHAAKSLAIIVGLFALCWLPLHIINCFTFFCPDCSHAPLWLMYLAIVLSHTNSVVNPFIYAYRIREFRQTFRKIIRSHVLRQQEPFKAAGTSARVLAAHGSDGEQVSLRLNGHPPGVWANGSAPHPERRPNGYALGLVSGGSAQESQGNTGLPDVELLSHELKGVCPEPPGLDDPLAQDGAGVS
- assay details: Radioligand competition binding with 125I-APE or 125I-ZM241385, Sf9 cell membranes
- experimental context: 125I-APE or 125I-ZM241385, Sf9 membranes, Ki derived from IC50
pKi: −log10 of the molar value.
measured property: pKi

INSERT INTO results (compound, result_value) VALUES
  ('Nc1nc(C#CCC2CCN(C(=O)Oc3ccccc3)CC2)nc2c1ncn2[C@@H]1O[C@H](C(=O)NC2CC2)C(O)[C@@H]1O (stereo partly shown) [Compound 1, reference compound]', 9.25);
